# assayed_target: UniProt:O00408
# Sequence (O00408 whole entry): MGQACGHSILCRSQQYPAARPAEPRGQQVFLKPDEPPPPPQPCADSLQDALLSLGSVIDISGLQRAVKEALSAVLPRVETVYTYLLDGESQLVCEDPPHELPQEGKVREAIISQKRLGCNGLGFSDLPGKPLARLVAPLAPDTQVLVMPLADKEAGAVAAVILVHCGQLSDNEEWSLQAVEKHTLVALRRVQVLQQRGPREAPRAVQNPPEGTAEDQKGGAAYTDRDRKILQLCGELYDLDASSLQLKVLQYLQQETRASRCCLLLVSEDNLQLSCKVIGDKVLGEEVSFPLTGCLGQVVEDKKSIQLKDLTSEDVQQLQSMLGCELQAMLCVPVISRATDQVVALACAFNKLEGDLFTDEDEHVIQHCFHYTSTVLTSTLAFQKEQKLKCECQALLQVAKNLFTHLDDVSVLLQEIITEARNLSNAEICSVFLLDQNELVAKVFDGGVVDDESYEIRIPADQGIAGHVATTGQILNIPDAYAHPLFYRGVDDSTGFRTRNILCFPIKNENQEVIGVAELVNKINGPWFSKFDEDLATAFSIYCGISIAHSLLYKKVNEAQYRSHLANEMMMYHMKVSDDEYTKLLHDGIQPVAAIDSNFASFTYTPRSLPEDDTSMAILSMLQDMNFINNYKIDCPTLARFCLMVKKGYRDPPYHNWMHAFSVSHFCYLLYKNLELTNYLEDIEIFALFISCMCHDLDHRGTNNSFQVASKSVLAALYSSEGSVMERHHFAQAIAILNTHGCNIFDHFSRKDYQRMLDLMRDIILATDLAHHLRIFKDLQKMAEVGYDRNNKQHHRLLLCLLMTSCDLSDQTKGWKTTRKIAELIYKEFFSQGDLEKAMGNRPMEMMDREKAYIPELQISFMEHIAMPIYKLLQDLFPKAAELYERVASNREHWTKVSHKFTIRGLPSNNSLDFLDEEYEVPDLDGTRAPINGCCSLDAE
measured_endpoint: IC50

>>> measured("O=C(Nc1ccccc1Cl)c1ccc(OC(F)F)c(OC2CCCC2)c1")
"> 100 µM"
>>> measured("O=C(Nc1cccnc1)c1ccc(OC(F)F)c(OCC2CC2)c1")
"> 100 µM"
>>> measured("O=C(Nc1cccnc1)c1ccc(OC(F)F)c(OC2CCCC2)c1")
"> 100 µM"

---

Recorded pIC50 values for a group of compounds are listed next.
# assayed_target: 3',5'-cyclic-AMP phosphodiesterase 4C (Homo sapiens)
# method: Inhibition of full length human PDE4C1 using FAM-3',5'-cAMP as substrate after 1 hr by fluorescence polarization assay
pIC50: −log10 of the molar value.
measured_endpoint: pIC50

>>> measured("O=C(Nc1cccnc1)c1ccc(OC(F)F)c(OCC2CC2)c1")
6.57
>>> measured("O=C(Nc1cccnc1)c1ccc(OC(F)F)c(OC2CCCC2)c1")
6.53
>>> measured("O=C(Nc1ccccc1Cl)c1ccc(OC(F)F)c(OCC2CC2)c1")
6.30

---

Recorded inhibition values for a group of molecules are listed next.
# assayed_target: cAMP and cAMP-inhibited cGMP 3',5'-cyclic phosphodiesterase 10A (Homo sapiens, UniProt Q9Y233)
# Sequence (Q9Y233 whole entry): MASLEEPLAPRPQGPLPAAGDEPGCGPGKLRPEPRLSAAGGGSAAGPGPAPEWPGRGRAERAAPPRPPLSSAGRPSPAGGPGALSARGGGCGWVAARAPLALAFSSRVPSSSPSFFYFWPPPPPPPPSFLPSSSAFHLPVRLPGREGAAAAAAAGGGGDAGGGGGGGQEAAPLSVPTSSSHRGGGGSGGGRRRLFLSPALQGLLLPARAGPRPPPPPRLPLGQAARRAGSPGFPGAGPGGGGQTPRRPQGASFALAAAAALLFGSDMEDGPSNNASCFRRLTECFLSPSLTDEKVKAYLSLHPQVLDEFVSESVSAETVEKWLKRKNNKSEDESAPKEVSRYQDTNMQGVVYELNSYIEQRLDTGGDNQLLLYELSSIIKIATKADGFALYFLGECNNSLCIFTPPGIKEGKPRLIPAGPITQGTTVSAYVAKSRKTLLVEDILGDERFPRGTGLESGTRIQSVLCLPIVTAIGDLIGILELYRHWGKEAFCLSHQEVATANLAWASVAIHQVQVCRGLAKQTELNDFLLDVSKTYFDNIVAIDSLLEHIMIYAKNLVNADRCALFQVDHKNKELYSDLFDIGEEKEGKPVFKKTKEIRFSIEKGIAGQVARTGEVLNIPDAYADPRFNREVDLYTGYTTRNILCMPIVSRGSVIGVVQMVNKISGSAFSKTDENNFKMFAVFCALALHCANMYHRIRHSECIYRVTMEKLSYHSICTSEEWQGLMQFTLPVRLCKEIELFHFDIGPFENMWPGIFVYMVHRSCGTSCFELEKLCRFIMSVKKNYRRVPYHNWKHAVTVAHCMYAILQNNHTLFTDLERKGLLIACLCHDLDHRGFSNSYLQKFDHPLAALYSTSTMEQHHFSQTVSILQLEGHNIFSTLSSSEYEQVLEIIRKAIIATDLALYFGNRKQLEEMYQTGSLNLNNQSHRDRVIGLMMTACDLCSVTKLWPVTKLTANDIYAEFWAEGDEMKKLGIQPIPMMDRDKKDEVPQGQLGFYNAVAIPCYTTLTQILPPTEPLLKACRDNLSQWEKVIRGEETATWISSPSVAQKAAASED
# method: Inhibition of human PDE10A2 at 10^4 nM using FAM-3',5'-cAMP as substrate after 1 hr by fluorescence polarization assay relative to control
measured_endpoint: inhibition (%)

>>> measured("O=C(Nc1cccnc1)c1ccc(OC(F)F)c(OCC2CC2)c1")
14
>>> measured("O=C(Nc1cccnc1)c1ccc(OC(F)F)c(OC2CCCC2)c1")
9
>>> measured("O=C(Nc1ccccc1Cl)c1ccc(OC(F)F)c(OC2CCCC2)c1")
6
>>> measured("O=C(Nc1ccccc1Cl)c1ccc(OC(F)F)c(OCC2CC2)c1")
3

---

# assayed_target: Cone cGMP-specific 3',5'-cyclic phosphodiesterase subunit alpha' (Homo sapiens)
# Sequence (P51160 whole entry): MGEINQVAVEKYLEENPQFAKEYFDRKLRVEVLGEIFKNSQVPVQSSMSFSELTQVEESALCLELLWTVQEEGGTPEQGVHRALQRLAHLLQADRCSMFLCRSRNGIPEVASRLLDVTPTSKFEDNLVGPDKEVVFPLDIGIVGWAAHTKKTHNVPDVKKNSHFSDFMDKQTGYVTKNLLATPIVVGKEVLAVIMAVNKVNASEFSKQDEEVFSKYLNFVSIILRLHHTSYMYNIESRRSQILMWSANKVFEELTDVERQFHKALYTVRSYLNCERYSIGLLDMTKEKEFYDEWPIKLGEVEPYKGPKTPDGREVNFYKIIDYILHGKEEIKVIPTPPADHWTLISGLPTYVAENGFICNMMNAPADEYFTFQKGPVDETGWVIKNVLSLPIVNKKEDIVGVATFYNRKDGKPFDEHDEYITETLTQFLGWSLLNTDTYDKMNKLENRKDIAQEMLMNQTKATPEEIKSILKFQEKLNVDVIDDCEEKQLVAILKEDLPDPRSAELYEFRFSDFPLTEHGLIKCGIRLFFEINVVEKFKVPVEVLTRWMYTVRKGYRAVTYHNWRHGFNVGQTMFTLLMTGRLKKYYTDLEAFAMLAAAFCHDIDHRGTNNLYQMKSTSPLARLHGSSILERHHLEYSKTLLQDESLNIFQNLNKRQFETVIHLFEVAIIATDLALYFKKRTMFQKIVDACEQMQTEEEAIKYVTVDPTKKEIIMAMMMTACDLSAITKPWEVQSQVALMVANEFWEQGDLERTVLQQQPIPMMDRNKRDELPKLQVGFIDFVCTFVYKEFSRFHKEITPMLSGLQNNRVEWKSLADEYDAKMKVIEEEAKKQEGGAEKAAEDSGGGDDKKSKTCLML
# method: Inhibition of human PDE6C at 10^4 nM using FAM-3',5'-cAMP as substrate after 1 hr by fluorescence polarization assay relative to control
measured_endpoint: inhibition (%)

>>> measured("O=C(Nc1cccnc1)c1ccc(OC(F)F)c(OCC2CC2)c1")
28
>>> measured("O=C(Nc1cccnc1)c1ccc(OC(F)F)c(OC2CCCC2)c1")
16
>>> measured("O=C(Nc1ccccc1Cl)c1ccc(OC(F)F)c(OCC2CC2)c1")
2
>>> measured("O=C(Nc1ccccc1Cl)c1ccc(OC(F)F)c(OC2CCCC2)c1")
2

---

# assayed_target: 3',5'-cyclic-AMP phosphodiesterase 4C (Homo sapiens, UniProt Q08493)
# Sequence (Q08493 whole entry): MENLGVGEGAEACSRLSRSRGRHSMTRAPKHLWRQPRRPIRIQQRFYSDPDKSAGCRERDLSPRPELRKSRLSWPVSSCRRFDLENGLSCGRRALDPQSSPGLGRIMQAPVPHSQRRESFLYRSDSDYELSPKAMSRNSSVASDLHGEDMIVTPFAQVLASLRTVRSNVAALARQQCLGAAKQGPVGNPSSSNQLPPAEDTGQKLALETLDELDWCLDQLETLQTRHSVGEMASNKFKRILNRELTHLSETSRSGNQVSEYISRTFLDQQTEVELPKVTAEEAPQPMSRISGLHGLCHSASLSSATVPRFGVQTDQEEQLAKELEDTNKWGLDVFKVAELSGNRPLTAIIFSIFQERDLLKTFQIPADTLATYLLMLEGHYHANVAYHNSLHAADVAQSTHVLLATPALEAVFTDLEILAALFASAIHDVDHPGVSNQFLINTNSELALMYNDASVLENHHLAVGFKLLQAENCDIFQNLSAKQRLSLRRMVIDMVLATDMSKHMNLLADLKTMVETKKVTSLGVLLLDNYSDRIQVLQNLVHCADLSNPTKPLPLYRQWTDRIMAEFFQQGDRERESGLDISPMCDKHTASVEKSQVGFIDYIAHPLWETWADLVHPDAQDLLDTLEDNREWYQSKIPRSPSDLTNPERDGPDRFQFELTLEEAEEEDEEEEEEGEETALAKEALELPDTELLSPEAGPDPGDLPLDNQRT
# method: Inhibition of full length human PDE4C1 at 10^4 nM using FAM-3',5'-cAMP as substrate after 1 hr by fluorescence polarization assay relative to control
measured_endpoint: inhibition (%)

>>> measured("O=C(Nc1ccccc1Cl)c1ccc(OC(F)F)c(OCC2CC2)c1")
96
>>> measured("O=C(Nc1cccnc1)c1ccc(OC(F)F)c(OC2CCCC2)c1")
98
>>> measured("O=C(Nc1ccccc1Cl)c1ccc(OC(F)F)c(OC2CCCC2)c1")
97
>>> measured("O=C(Nc1cccnc1)c1ccc(OC(F)F)c(OCC2CC2)c1")
98

---

Recorded inhibition values for a group of compounds are listed next.
# assayed_target: UniProtKB O76074
# method: Inhibition of human PDE5A at 10^4 nM using FAM-3',5'-cAMP as substrate after 1 hr by fluorescence polarization assay relative to control
measured_endpoint: inhibition (%)

>>> measured("O=C(Nc1ccccc1Cl)c1ccc(OC(F)F)c(OCC2CC2)c1")
12
>>> measured("O=C(Nc1ccccc1Cl)c1ccc(OC(F)F)c(OC2CCCC2)c1")
7
>>> measured("O=C(Nc1cccnc1)c1ccc(OC(F)F)c(OC2CCCC2)c1")
12
>>> measured("O=C(Nc1cccnc1)c1ccc(OC(F)F)c(OCC2CC2)c1")
23
